biological target: BCL-2 (Homo sapiens (Human)); assay: Protein-protein interaction assay BCL-2/Bad BH3 peptide (BCL-2 assay, TR-FRET); type: binding; conditions: His-BCL-2 / Bad BH3 peptide, median
METRIC_NAME: IC50

input: Enter measured IC50, system BCL-2 (Homo sapiens (Human)), for the compound shown: CCc1c2c(nn1C)CN(CCCN1CCCC1)S(=O)(=O)CCCn1c(C(=O)O)c(CCCOc3cccc4ccccc34)c3cccc-2c31 (racemic)
output: > 20 µM

input: Enter measured IC50, system BCL-2 (Homo sapiens (Human)), for the compound shown: Cc1c2c(nn1C)CNS(=O)(=O)CCCn1c(C(=O)O)c(CCCOc3cccc4cc(F)ccc34)c3ccc(Cl)c-2c31 (single isomer, unassigned; enantiomer 1) [Example 51]
output: > 20 µM

input: Enter measured IC50, system BCL-2 (Homo sapiens (Human)), for the compound shown: Cc1c2c(nn1C)CN(C)S(=O)(=O)CCCn1c(C(=O)O)c(CCCOc3cccc4ccccc34)c3ccc(F)c-2c31 (racemic)
output: > 20 µM

input: Enter measured IC50, system BCL-2 (Homo sapiens (Human)), for the compound shown: CCc1c2c(nn1C)CNS(=O)(=O)CCCn1c(C(=O)O)c(CCCOc3cccc4ccccc34)c3cccc-2c31 (racemic)
output: > 20 µM

input: Enter measured IC50, system BCL-2 (Homo sapiens (Human)), for the compound shown: CCc1c2c(nn1C)C(CCC1CCOCC1)N(C)S(=O)(=O)CCCn1c(C(=O)O)c(CCCOc3cccc4cc(F)ccc34)c3ccc(Cl)c-2c31 (racemic) [Example 59]
output: 17 µM

input: Enter measured IC50, system BCL-2 (Homo sapiens (Human)), for the compound shown: Cc1cc(OCCCc2c(C(=O)O)n3c4c(c(F)ccc24)-c2c(nn(C)c2C)CN(C)S(=O)(=O)CCC3)cc(C)c1Cl (racemic)
output: > 20 µM

input: Enter measured IC50, system BCL-2 (Homo sapiens (Human)), for the compound shown: `CCc1c2c(nn1C)CN(CCN1CCOCC1)S(=O)(=O)CCCn1c(C(=O)O)c(CCCOc3cccc4cc(F)ccc34)c3ccc(Cl)c-2c31`
output: > 20 µM

input: Enter measured IC50, system BCL-2 (Homo sapiens (Human)), for the compound shown: CCc1c2c(nn1C)CN(C)S(=O)(=O)CCCn1c(C(=O)O)c(CCCOc3cccc4cc(F)ccc34)c3ccc(Cl)c-2c31 (single isomer, unassigned; enantiomer 2) [Example 37]
output: 20 µM

input: Enter measured IC50, system BCL-2 (Homo sapiens (Human)), for the compound shown: Cc1c2c(nn1C)C(CCN1CCOCC1)N(C)S(=O)(=O)CCCn1c(C(=O)O)c(CCCOc3cccc4ccccc34)c3cccc-2c31 (single isomer, unassigned; enantiomer 1) [Example 45]
output: > 20 µM

input: Enter measured IC50, system BCL-2 (Homo sapiens (Human)), for the compound shown: CCc1c2c(nn1C)C(CCC1CCOCC1)N(C)S(=O)(=O)CCCn1c(C(=O)O)c(CCCOc3cccc4cc(F)ccc34)c3ccc(Cl)c-2c31 (single isomer, unassigned; enantiomer 2) [Example 62]
output: 14 µM

input: Enter measured IC50, system BCL-2 (Homo sapiens (Human)), for the compound shown: Cc1c2c(nn1C)CNS(=O)(=O)CCCn1c(C(=O)O)c(CCCOc3cccc4cc(F)ccc34)c3ccc(Cl)c-2c31 (single isomer, unassigned; enantiomer 2) [Example 52]
output: > 20 µM

input: Enter measured IC50, system BCL-2 (Homo sapiens (Human)), for the compound shown: Cc1c2c(nn1C)CN(C)S(=O)(=O)CCCn1c(C(=O)O)c(CCCOc3cccc4cc(F)ccc34)c3ccc(F)c-2c31 (single isomer, unassigned; enantiomer 1) [Example 38]
output: > 20 µM

input: Enter measured IC50, system BCL-2 (Homo sapiens (Human)), for the compound shown: CCc1c2c(nn1C)C(CCC1CCOCC1)N(C)S(=O)(=O)CCCn1c(C(=O)O)c(CCCOc3cccc4cc(F)ccc34)c3ccc(Cl)c-2c31 (single isomer, unassigned; enantiomer 3) [Example 63]
output: 19 µM

----------
biological target: BCL-2 (Homo sapiens (Human), UniProt P10415); assay: Protein-protein interaction assay BCL-2/Bad BH3 peptide (BCL-2 assay, TR-FRET); format: binding; conditions: His-BCL-2 / Bad BH3 peptide, median
Sequence (P10415 other isoform, or with tags, fused parts or gaps): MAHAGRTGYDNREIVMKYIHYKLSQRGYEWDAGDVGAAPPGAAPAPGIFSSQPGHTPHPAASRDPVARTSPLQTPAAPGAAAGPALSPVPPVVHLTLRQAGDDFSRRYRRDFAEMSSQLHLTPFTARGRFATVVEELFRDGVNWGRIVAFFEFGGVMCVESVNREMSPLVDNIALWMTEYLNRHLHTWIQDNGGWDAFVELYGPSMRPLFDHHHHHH
Entries annotated with measured IC50

Example compounds with recorded IC50:
COMPOUND	EXPERIMENTAL_SYSTEM	METRIC_NAME	REPORTED_MEASUREMENT
CCc1c2c(nn1C)CN(C)S(=O)(=O)CCCn1c(C(=O)O)c(CCCOc3cc(C)c(Cl)c(C)c3)c3ccc(F)c-2c31 (racemic)	BCL-2 (Homo sapiens (Human), UniProt P10415)	IC50	> 20 µM
Cc1c2c(nn1C)C(N1CCOCC1)CCN(C)S(=O)(=O)CCCn1c(C(=O)O)c(CCCOc3cccc4cc(F)ccc34)c3ccc(Cl)c-2c31 (racemic)	BCL-2 (Homo sapiens (Human), UniProt P10415)	IC50	> 20 µM

Could you now consider this next compound?
input: Annotate the compound Cc1c2c(nn1C)CN(CCN1CCOCC1)S(=O)(=O)CCCn1c(C(=O)O)c(CCCOc3cccc4ccccc34)c3cccc-2c31 (racemic) [Example 1] with its measured IC50.
output: > 20 µM

----------
biological target: SUDHL5; assay: Induction of caspase-3/7 activity (Assay 4), SUDHL5; assay type: cell-based; details: caspase-3/7 induction, 3 hours, median
Entries annotated with measured EC50
Your answer should be a plain number; it is taken to be in µM.

COMPOUND	OUTPUT_UNIT	EC50
CCc1c2c(nn1C)C(CCN1CCOCC1)N(C)S(=O)(=O)CCCn1c(C(=O)O)c(CCCOc3cccc4cc(F)ccc34)c3ccc(Cl)c-2c31 (racemic) [Example 74]	µM	0.011
CCc1c2c(nn1C)CN(C)S(=O)(=O)CCCn1c(C(=O)O)c(CCCOc3cccc4cc(F)ccc34)c3ccc(F)c-2c31 (single isomer, unassigned; enantiomer 1) [Example 8]	µM	0.58

Could you now consider this next compound?
input: Annotate the compound CCc1c2c(nn1C)CN(C1CC1)S(=O)(=O)CCCn1c(C(=O)O)c(CCCOc3cccc4cc(F)ccc34)c3ccc(Cl)c-2c31 (single isomer, unassigned; enantiomer 2) [Example 55] with its measured EC50.
output: 8.9

----------
test system: MV-4-11; test: Antiproliferation assay (Assay 7), MV-4-11; format: cell-based; conditions: Homo sapiens, MV4-11, 72 h, CellTiter-Glo, several values per example, read-out: Antiproli MV-4-11 [M] IC50
METRIC_NAME: IC50 (M)
Your answer should be a plain number; it is taken to be in M.

Example compounds with recorded IC50:
COMPOUND	OUTPUT_UNIT	IC50
CCc1c2c(nn1C)CN(CCCN1CCCC1=O)S(=O)(=O)CCCn1c(C(=O)O)c(CCCOc3cccc4ccccc34)c3cccc-2c31 (racemic)	M	1.62e-05
Cc1c2c(nn1C)CN(C)S(=O)(=O)CCCn1c(C(=O)O)c(CCCOc3cccc4ccccc34)c3ccc(F)c-2c31 (racemic)	M	5.17e-07
Cc1c2c(nn1C)CN(CCN1CCOCC1)S(=O)(=O)CCCn1c(C(=O)O)c(CCCOc3cccc4ccccc34)c3cccc-2c31 (racemic) [Example 1]	M	1.73e-05
CCc1c2c(nn1C)CN(C)S(=O)(=O)CCCn1c(C(=O)O)c(CCCOc3cccc4c3CCCC4)c3ccc(Cl)c-2c31	M	1.96e-06
CCc1c2c(nn1C)CN(CCN1CCCCC1)S(=O)(=O)CCCn1c(C(=O)O)c(CCCOc3cccc4ccccc34)c3cccc-2c31 (racemic)	M	1.18e-05

input: Annotate the compound `CCc1c2c(nn1C)CN(C)S(=O)(=O)CCCn1c(C(=O)O)c(CCCOc3cccc4ccccc34)c3ccc(Cl)c-2c31` with its measured IC50.
output: 1.31e-06

input: Annotate the compound `CCc1c2c(nn1C)CN(C)S(=O)(=O)CCCn1c(C(=O)O)c(CCCOc3cccc4c3CCC4)c3ccc(Cl)c-2c31` with its measured IC50.
output: 2.1e-06

input: Annotate the compound CCc1c2c(nn1C)CN(C)S(=O)(=O)CCCn1c(C(=O)O)c(CCCOc3cc(C)c(Cl)c(C)c3)c3ccc(F)c-2c31 (racemic) with its measured IC50.
output: 4.62e-06

input: Annotate the compound Cc1cc(OCCCc2c(C(=O)O)n3c4c(c(F)ccc24)-c2c(nn(C)c2C)CN(C)S(=O)(=O)CCC3)cc(C)c1Cl (racemic) with its measured IC50.
output: 7.54e-06

----------
molecular target: BCL-XL (Homo sapiens (Human), UniProt Q07817); experiment: Protein-protein interaction assay BCL-XL/Bad BH3 peptide (BCL-XL assay, TR-FRET); type: binding; settings: His-BCL-XL / Bad BH3 peptide, median
Sequence (Q07817 other isoform, or with tags, fused parts or gaps): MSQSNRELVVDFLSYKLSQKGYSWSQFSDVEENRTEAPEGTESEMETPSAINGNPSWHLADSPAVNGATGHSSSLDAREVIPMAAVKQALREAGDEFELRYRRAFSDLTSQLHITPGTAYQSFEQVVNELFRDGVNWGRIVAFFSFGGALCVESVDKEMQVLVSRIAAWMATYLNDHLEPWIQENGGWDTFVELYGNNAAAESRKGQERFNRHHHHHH
Entries annotated with measured IC50

Example molecules with recorded IC50:
MOLECULE	EXPERIMENTAL_SYSTEM	IC50
CCc1c2c(nn1C)CN(CCCN1CCCC1=O)S(=O)(=O)CCCn1c(C(=O)O)c(CCCOc3cccc4ccccc34)c3cccc-2c31 (racemic)	BCL-XL (Homo sapiens (Human), UniProt Q07817)	> 20 µM
CCc1c2c(nn1C)CN(C)S(=O)(=O)CCCn1c(C(=O)O)c(CCCOc3cccc4ccccc34)c3ccc(F)c-2c31 (racemic)	BCL-XL (Homo sapiens (Human), UniProt Q07817)	> 20 µM

Could you now consider this next molecule?
input: Annotate the molecule Cc1c2c(nn1C)C(CCN1CCOCC1)N(C)S(=O)(=O)CCCn1c(C(=O)O)c(CCCOc3cccc4cc(F)ccc34)c3ccc(Cl)c-2c31 (racemic) [Example 65] with its measured IC50.
output: > 20 µM
